These measurements were taken from ChEMBL document CHEMBL1132380.

Assay: Half-life in rat plasma
Format: ADME
value-type: half-life (h)
The reply should be a number in h, with the unit left off.

Task item: Name the recorded half-life of the item COc1cccc2c1C(=O)c1c(O)c3c(c(O)c1C2=O)C[C@@](O)(C(=O)CNC(=O)OCc1ccc(OC(=O)NCCOCCOCCO)cc1)C[C@@H]3OC1CC(N)C(O)C(C)O1 (some centres undefined) in your answer.
Reply: 4

Task item: Give the value of half-life reported for the following: COc1cccc2c1C(=O)c1c(O)c3c(c(O)c1C2=O)C[C@@](O)(C(=O)CNC(=O)OCc1ccc(OC(=O)CCOCCOCCO)cc1)C[C@@H]3OC1CC(N)C(O)C(C)O1 (some centres undefined)
Reply: 0.4
